The reported measurements were obtained from PubChem BioAssay (EPA / NIEHS).

# test_protocol: ACEA_ER_AUC_viability: ACEA Biosciences xCELLigence Real-Time Cell Analysis on Estrogen Receptor Agonism for Viability (AID 2283782);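 further: continuous compound exposure with impedance area under curve over 80 h; hit means loss of impedance signal meaning reduced cell growth or viability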
Records with an inconclusive call do not appear. Calls of active or inactive are those of the source. How the source made its calls: active means hit-call score of the fitted dose curve at least 0.9, where 1 is the maximum; inconclusive means response in the unintended direction; inactive means score below 0.9.
Your response should consist of one outcome taken from active, inactive

compound	label_class
CC=C1CC2C=CC1C2 (stereo unspecified)	inactive
CC(C)C1=CC2=CC[C@@H]3[C@](C)(CCC[C@@]3(C)C(=O)O)[C@H]2CC1	inactive
NC(=O)NNC(N)=O	inactive

Tell me the assay call for Nc1cccc(C(F)(F)F)c1 please. inactive

Status in this test for CCC(Cc1ccccc1)(C(=O)c1ccc(N2CCOCC2)cc1)N(C)C (stereo unspecified) ? active

Which outcome was entered for the compound C=C(C)[C@@H]1CCC2=CCC[C@@H](C)[C@]2(C)C1 in this test? active

Write down the call the test reported for this compound. Item: Cc1ccc(N)c([N+](=O)[O-])c1 inactive

Please let me know the test result on file for CC(C)C(=O)C(C)C . active

# lookup: test call for Cc1ccc([N+](=O)[O-])cc1S(=O)(=O)O inactive

Status in this test for CC[C@H]1OC(=O)[C@H](C)[C@@H](O[C@H]2C[C@@](C)(OC)[C@@H](O)[C@H](C)O2)[C@H](C)[C@@H](O[C@@H]2O[C@H](C)C[C@H](N(C)C)[C@H]2O)[C@](C)(O)C[C@@H](C)C(=NOCOCCOC)[C@H](C)[C@@H](O)[C@]1(C)O ? inactive

What did this assay record as the result for OC1CCCC1 ? inactive

* * *

# Read-out: Vascular cell adhesion molecule 1 (VCAM1), VCAM1 (gene 7412)
# test_protocol: BSK_LPS_VCAM1: BioMAP Diversity Plus: LPS Assay for Vascular cell adhesion molecule 1 (VCAM1) Biomarker Activity (AID 2283086)
# measurement_parameters: primary human HUVEC with PBMC; actives raise or lower the signal
Active and inactive are the calls of the source. Rule for the calls: active = hit-call score of the fitted dose curve at least 0.9, where 1 is the maximum; inactive = score below 0.9.
Could you please pick one outcome from this set? y (active), n (inactive)

In [3]: df
Out[3]:
                                   molecule  label_class
0  C#CC1(O)CC[C@H]2[C@@H]3CCC4=CCCC[C@@H]4[C@H]3CC[C@@]21C (some centres not stated)            y
1              O=C(c1ccc(O)cc1)c1ccc(O)cc1O            n
2     CCCCCCCCc1ccc(Nc2ccc(CCCCCCCC)cc2)cc1            n
3                    O=c1c2ccccc2oc2ccccc12            n
4  C=CCOCC(O)CCl (configuration not stated)            n
5  COCc1c(C(C)C)nc(C(C)C)c(/C=C/[C@@H](O)C[C@@H](O)CC(=O)O)c1-c1ccc(F)cc1            n

Consider the record given below.
Write down the call the test reported for this molecule. Item: C=CCOc1c(Br)cc(Br)cc1Br n

* * *

# test_protocol: ATG_GATA_CIS: Attagene CIS-FACTORIAL HepG2 Assay for human GATA Binding Protein (AID 2282944)
# measurement_parameters: HepG2 GATA cis-element reporter, Attagene multiplex mRNA; actives raise or lower the signal
# Protocol: ATG_CIS is a cell-based, multiplexed-readout assay that uses HepG2, a human liver cell line, with measurements taken at 24 hours after chemical dosing in a 24-well plate.ATG_GATA_CIS is one of 52 assay component(s) measured or calculated from the ATG_CIS assay. […] This assay endpoint, ATG_GATA_CIS, was analyzed with bidirectional fitting relative to DMSO as the negative control and baseline of activity. […]
Activity calls are given as the source filed them. How the source made its calls: active means hit-call score of the fitted dose curve at least 0.9, where 1 is the maximum; inactive means score below 0.9.
test_readout: outcome

In [3]: df
Out[3]:
                               query_smiles  test_readout  obs_value
0                        COc1ccc2nc(N)sc2c1       outcome   inactive
1                    O=c1c2ccccc2oc2ccccc12       outcome   inactive
2      N#[N+]c1ccc2c(S(=O)(=O)[O-])cccc2c1O       outcome   inactive
3                        Cc1cc(C)c(C)c(C)c1       outcome   inactive
4               CCCCCCCCCCCCCCCC[n+]1ccccc1       outcome   inactive
5                    ON(Cc1ccccc1)Cc1ccccc1       outcome   inactive
6             O=C(Oc1ccccc1)c1ccc2ccccc2c1O       outcome   inactive
7          O=S(=O)(Oc1ccc(Cl)cc1Cl)c1ccccc1       outcome   inactive
8                            O=Cc1ccc(CO)o1       outcome   inactive
9  O=S1(=O)OC(c2ccc(O)cc2)(c2ccc(O)cc2)c2ccccc21       outcome   inactive

Need outcome of N=c1ccn2c(n1)O[C@H]1[C@H](O)[C@@H](CO)O[C@H]12 , thanks. inactive

For O=C(C=Cc1ccccc1)OCc1ccccc1 , what is its reported outcome? inactive

For the compound shown here, CCCCCCCCC(=O)OCC , give the reported outcome. inactive

// returns reported outcome for input O=c1c2ccccc2nnn1CCl inactive
